Study system: R232-STING (Homo sapiens, UniProt Q86WV6, H232R)
Sequence (Q86WV6 155-341 H232R): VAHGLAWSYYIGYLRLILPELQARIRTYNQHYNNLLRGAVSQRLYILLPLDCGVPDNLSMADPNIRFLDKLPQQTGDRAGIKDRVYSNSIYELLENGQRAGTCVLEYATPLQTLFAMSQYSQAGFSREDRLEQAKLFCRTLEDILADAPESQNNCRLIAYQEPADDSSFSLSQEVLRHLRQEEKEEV
Test protocol: biochemical
Reported metric: Ki

(Q) Would you mind telling me what Ki value was observed for CCn1nc(C)c(F)c1-c1nc(-c2c(F)c(C(N)=O)cc3c2cnn3C)n(C)n1 ?
(A) > 990 nM

(Q) Sample CCn1nc(CO)c(F)c1-c1nc(-c2nc(C(N)=O)cc3c2cnn3C)n(C)n1 — what was its Ki?
(A) > 990 nM

(Q) Consider the molecule CCn1nc(C)cc1-c1nnc(-c2cc(C(N)=O)cc3c2cnn3C(C)CN2CCCC2)[nH]1 (centres unmarked) and give its measured Ki.
(A) > 990 nM

(Q) Form field: reported Ki of Cc1cc(-c2n[nH]c(-c3c(F)c(C(N)=O)cc4c3cnn4C)n2)n(CCC(=O)O)n1
(A) > 891 nM

(Q) Requested field: Ki. Item: CCn1nc(C)cc1-c1nnc(-c2cc(C(N)=O)cc3c2cnn3[C@H](C)C2CCN(C)CC2)[nH]1 (racemic)
(A) > 990 nM

(Q) Which Ki is listed for CCn1nc(C)cc1-c1n[nH]c(-c2cc(C(N)=O)cc3c2cnn3CCN2CCC23CC3)n1 ?
(A) > 990 nM

(Q) Would you kindly share the measured Ki for CCn1nc(C)c(O)c1-c1nc(-c2nc(C(N)=O)cc3[nH]ncc23)n(C)n1 ?
(A) > 90.1 nM

(Q) Looking for the measured Ki of CCn1nc(CO)cc1-c1cnc(-c2cc(C(N)=O)cc3c2cnn3C)[nH]1 , can you help?
(A) > 900 nM
